test system: ATP; test: switch fluorescence ratio, 500 uM ATP over buffer (Cy3 cluster intensity, sum of 5 cycles each) (fold (ratio)); higher = stronger signal-on switching upon ATP binding; sequences stand for … in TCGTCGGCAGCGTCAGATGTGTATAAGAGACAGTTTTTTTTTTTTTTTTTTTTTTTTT…TC; details: aptamer strand: ATP DNA aptamer (quencher-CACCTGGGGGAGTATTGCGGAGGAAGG + anchor), 100 nM annealed; ATP concentration: 500 uM;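 also: ATP exposure 15 min at 22 °C before imaging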
Readout name: switch fluorescence ratio

[[record]]
sequence_input = "TTTCAAATCT"
result = 1.03

[[record]]
sequence_input = "TTTGAGTTT"
result = 0.981

[[record]]
sequence_input = "AGGTTTGTAG"
result = 0.983

[[record]]
sequence_input = "CTCGGGCATT"
result = 1.23

[[record]]
sequence_input = "GCCCCCCACA"
result = 1.1

[[record]]
sequence_input = "ATTTGAGAAA"
result = 1.01

[[record]]
sequence_input = "CGATTTACTT"
result = 1.02

[[record]]
sequence_input = "AGTCAAACGA"
result = 1.03

[[record]]
sequence_input = "GGAGGGAGTG"
result = 0.98

[[record]]
sequence_input = "CATGTAGCGT"
result = 1

[[record]]
sequence_input = "GTGGTTTTAT"
result = 0.979

[[record]]
sequence_input = "GCAGTTTGGA"
result = 0.989

[[record]]
sequence_input = "AGAAAGGGGC"
result = 1.31

[[record]]
sequence_input = "TTTTTCGTTA"
result = 1.1

[[record]]
sequence_input = "CATTTGTCCG"
result = 1.01

[[record]]
sequence_input = "CGTGTAGGGG"
result = 1.03

[[record]]
sequence_input = "GCAAGTTTGC"
result = 1.04

[[record]]
sequence_input = "TTTAGGGAGT"
result = 0.985

[[record]]
sequence_input = "CACACAAATT"
result = 1.18

[[record]]
sequence_input = "ATGAATATTA"
result = 0.993

[[record]]
sequence_input = "CGGTGCACGG"
result = 1.05

[[record]]
sequence_input = "AAAGAGTTCA"
result = 1

[[record]]
sequence_input = "TCGGAGTGCG"
result = 1.01

[[record]]
sequence_input = "TTGGCATACG"
result = 1.06

[[record]]
sequence_input = "CTACGGGGCT"
result = 1.01

[[record]]
sequence_input = "TGAGTGATTG"
result = 1.04

[[record]]
sequence_input = "TTGCTCGCTC"
result = 1.16

[[record]]
sequence_input = "TTGATGAAAA"
result = 1

[[record]]
sequence_input = "GTATGGCTAG"
result = 0.978

[[record]]
sequence_input = "CTGGGGGAGT"
result = 1

[[record]]
sequence_input = "TTCGTATATC"
result = 1.7

[[record]]
sequence_input = "GAGTATTTAA"
result = 0.964

[[record]]
sequence_input = "ATCTTGGGGC"
result = 0.984

[[record]]
sequence_input = "AGGTGGGCGG"
result = 0.969

[[record]]
sequence_input = "ACTGGATCAC"
result = 1.1

[[record]]
sequence_input = "AATCTGGGCG"
result = 0.985

[[record]]
sequence_input = "CCGGGAGCAG"
result = 1.95

[[record]]
sequence_input = "TTAAAATAGA"
result = 1.07

[[record]]
sequence_input = "TTCGCTAGCT"
result = 1.03

[[record]]
sequence_input = "CGGTTGGAGC"
result = 0.988

[[record]]
sequence_input = "TTGATTTAAA"
result = 1.01

[[record]]
sequence_input = "AGGTTATGGG"
result = 1.04

[[record]]
sequence_input = "TCAGGATTAG"
result = 1.02

[[record]]
sequence_input = "TTATTAAGTG"
result = 1

[[record]]
sequence_input = "AATTTATTGG"
result = 1.01

[[record]]
sequence_input = "GCTTGTGACG"
result = 1.02


* * *

Reported switch fluorescence ratio values for a set of sequences
system: ATP; assay: switch fluorescence ratio, 500 uM ATP over buffer (Cy3 cluster intensity, sum of 5 cycles each) (fold (ratio)); higher = stronger signal-on switching upon ATP binding; sequences stand for … in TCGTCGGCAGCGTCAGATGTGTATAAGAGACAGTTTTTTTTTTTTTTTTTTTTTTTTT…TC; settings: aptamer strand: ATP DNA aptamer (quencher-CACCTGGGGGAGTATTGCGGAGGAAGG + anchor), 100 nM annealed; ATP concentration: 500 uM;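 also: ATP exposure 15 min at 22 °C before imaging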
Readout name: switch fluorescence ratio

[[record]]
sequence_input = "GGGGAATAAG"
subject_of_test = "ATP"
quantitative_result = 1.01

[[record]]
sequence_input = "GATGGGAGGT"
subject_of_test = "ATP"
quantitative_result = 1.01

[[record]]
sequence_input = "GTGTCAGTTG"
subject_of_test = "ATP"
quantitative_result = 0.936

[[record]]
sequence_input = "TTAGTTATTT"
subject_of_test = "ATP"
quantitative_result = 0.999

[[record]]
sequence_input = "GTATGCGTGC"
subject_of_test = "ATP"
quantitative_result = 1.04

[[record]]
sequence_input = "GGGTATGGTA"
subject_of_test = "ATP"
quantitative_result = 1

[[record]]
sequence_input = "CGTAGGGTCA"
subject_of_test = "ATP"
quantitative_result = 0.987

[[record]]
sequence_input = "TTTAATGCAA"
subject_of_test = "ATP"
quantitative_result = 1.05

[[record]]
sequence_input = "ATGGGGATCA"
subject_of_test = "ATP"
quantitative_result = 1.02

[[record]]
sequence_input = "CTTAGCTATT"
subject_of_test = "ATP"
quantitative_result = 1.02

[[record]]
sequence_input = "CAGGAGAAGG"
subject_of_test = "ATP"
quantitative_result = 1.05

[[record]]
sequence_input = "TTGATGCGTT"
subject_of_test = "ATP"
quantitative_result = 1.01

[[record]]
sequence_input = "TAGAGTAGAT"
subject_of_test = "ATP"
quantitative_result = 1.01

[[record]]
sequence_input = "CGGTCAGTAA"
subject_of_test = "ATP"
quantitative_result = 1.03

[[record]]
sequence_input = "GCGCTTAAGT"
subject_of_test = "ATP"
quantitative_result = 0.986

[[record]]
sequence_input = "CGCTTAGCCA"
subject_of_test = "ATP"
quantitative_result = 1.01

[[record]]
sequence_input = "GCTTTCCCTT"
subject_of_test = "ATP"
quantitative_result = 1.02

[[record]]
sequence_input = "TATGGGCCGG"
subject_of_test = "ATP"
quantitative_result = 1.07

[[record]]
sequence_input = "ACTGCAAGGA"
subject_of_test = "ATP"
quantitative_result = 1.03

[[record]]
sequence_input = "AGCCTATACT"
subject_of_test = "ATP"
quantitative_result = 1.6

[[record]]
sequence_input = "ATAACGGGAT"
subject_of_test = "ATP"
quantitative_result = 1.26

[[record]]
sequence_input = "CCATAAATAG"
subject_of_test = "ATP"
quantitative_result = 1.17

[[record]]
sequence_input = "TGCTATAATG"
subject_of_test = "ATP"
quantitative_result = 1.02

[[record]]
sequence_input = "ATCCCGGGGA"
subject_of_test = "ATP"
quantitative_result = 0.962

[[record]]
sequence_input = "CGAAGGGTGT"
subject_of_test = "ATP"
quantitative_result = 0.999

[[record]]
sequence_input = "GGGTTGTAAG"
subject_of_test = "ATP"
quantitative_result = 0.986

[[record]]
sequence_input = "AGGGGGGATC"
subject_of_test = "ATP"
quantitative_result = 1.01

[[record]]
sequence_input = "TTTTTTTATG"
subject_of_test = "ATP"
quantitative_result = 0.989

[[record]]
sequence_input = "TGGTTTTTTC"
subject_of_test = "ATP"
quantitative_result = 1.01

[[record]]
sequence_input = "TACTCACTTC"
subject_of_test = "ATP"
quantitative_result = 1.21

[[record]]
sequence_input = "AGGGTGTGTC"
subject_of_test = "ATP"
quantitative_result = 1.01

[[record]]
sequence_input = "CAGTAGGGTA"
subject_of_test = "ATP"
quantitative_result = 1

[[record]]
sequence_input = "CAGGGCGGGC"
subject_of_test = "ATP"
quantitative_result = 0.84

[[record]]
sequence_input = "AGTGGATATT"
subject_of_test = "ATP"
quantitative_result = 1.02

[[record]]
sequence_input = "TATATGGCAT"
subject_of_test = "ATP"
quantitative_result = 1.05

[[record]]
sequence_input = "CGCAGCGATG"
subject_of_test = "ATP"
quantitative_result = 2.66

[[record]]
sequence_input = "GAGTCGAGGG"
subject_of_test = "ATP"
quantitative_result = 0.961

[[record]]
sequence_input = "ATTCCGATTG"
subject_of_test = "ATP"
quantitative_result = 1.07

[[record]]
sequence_input = "TGGGGGAACT"
subject_of_test = "ATP"
quantitative_result = 0.996

[[record]]
sequence_input = "TGAGGGGCGG"
subject_of_test = "ATP"
quantitative_result = 0.998

[[record]]
sequence_input = "ATAAGAAATA"
subject_of_test = "ATP"
quantitative_result = 0.996


Measured values drawn from the supplement of paper PMC10126150 for this set.
